Test: Cytotoxicity against HEL assessed as minimum concentration required to cause morphological changes
Assay type: cell-based
Details: human, HEL cells
measurementName: MCC

Cc1ccc(/C=N/NC(=O)COc2cccc3ccccc23)cc1 yielded MCC of 20 µg/mL

O=C(COc1cccc2ccccc12)N/N=C/c1ccc(Br)cc1 yielded MCC of > 100 µg/mL

COc1cc(/C=N/NC(=O)COc2cccc3ccccc23)cc(OC)c1OC yielded MCC of ≥ 20 µg/mL

Nc1ccn(C[C@@H](CO)OCP(=O)(O)O)c(=O)n1.O.O yielded MCC of > 100 µg/mL

----------
Assay: Octanol-water partition coefficient, log P of the compound
Type: physicochemical
Output fulfilled for records whose logP is lower than 4, not fulfilled for records at or above 4.

**Q:** Check if logP falls below 4 for CCOc1ccc(/C=N/NC(=O)COc2cccc3ccccc23)cc1O .
**A:** fulfilled

**Q:** Check if logP falls below 4 for COc1ccc(/C=N/NC(=O)COc2cccc3ccccc23)cc1OC .
**A:** fulfilled

**Q:** Check if logP falls below 4 for O=C(COc1cccc2ccccc12)N/N=C/c1cccc(Cl)c1 .
**A:** not fulfilled
